Test system: MDR1
Assay: in vitro
Format: in vitro ADME
Conditions: dog, MDCK-MDR1, pH 7.4, Mean total recovery A to B
measured_parameter: recovery at 150 min, 2 μM (%)
Answers are plain numbers, in %.

Entry Cc1c(C(=O)Nc2ccc3c(c2)B(O)OC3)nnn1-c1ccccn1 , system MDR1: what recovery at 150 min, 2 μM was measured? 71.1

====

Assay: Hepatocyte stability, human
Type: in vitro ADME
Conditions: cryopreserved hepatocytes
measured_parameter: hepatocyte CLint at 1 μM
Give the value; after it, write the unit.

So what does the record say about hepatocyte CLint at 1 μM for Cc1c(C(=O)Nc2ccc3c(c2)B(O)OC3)nnn1-c1ccccn1 [Compound 23] ? 0.5 µL/min/1e6 cells
